Multi-source literature compilation: Ki on Adenosine receptor A1 (Homo sapiens, UniProt P30542).
Classification by Ki follows these ranges: lowest (below 200 nM), middle (200 nM to below 2000 nM), highest (2000 nM or more)

compound: CC(C)(C)c1cc(-c2cn3c(=O)n(-c4ccccc4)nc3c(N)n2)ccc1O
discrete label: highest

Exam item: Hi, small favor: classify CCCn1c(=O)[nH]c2nc(-c3cnn(Cc4cccc(C(F)(F)F)c4)c3)[nH]c2c1=O by its Ki when you get a moment.
Marked response: highest

Exam item: Hi, small favor: classify CC(C)Cn1c(=O)[nH]c2nc(-c3cnn(Cc4noc(-c5ccc(C(F)(F)F)cc5)n4)c3)[nH]c2c1=O by its Ki when you get a moment.
Marked response: highest

Exam item: Hi, small favor: classify CC1C(=O)c2nc(CCN3N=CCCC3=O)[nH]c2N(C)C1=O (stereo not given) by its Ki when you get a moment.
Marked response: highest

Exam item: Hi, small favor: classify Cc1nc(N)c2nn(-c3ccccc3)nc2n1 by its Ki when you get a moment.
Marked response: middle

Exam item: Hi, small favor: classify COc1ncc(Nc2ncc(-c3ccncn3)c(-c3ccco3)n2)cn1 by its Ki when you get a moment.
Marked response: highest

###

assay system: Adenosine receptor A1 (Homo sapiens)
Sequence (P30542 whole entry): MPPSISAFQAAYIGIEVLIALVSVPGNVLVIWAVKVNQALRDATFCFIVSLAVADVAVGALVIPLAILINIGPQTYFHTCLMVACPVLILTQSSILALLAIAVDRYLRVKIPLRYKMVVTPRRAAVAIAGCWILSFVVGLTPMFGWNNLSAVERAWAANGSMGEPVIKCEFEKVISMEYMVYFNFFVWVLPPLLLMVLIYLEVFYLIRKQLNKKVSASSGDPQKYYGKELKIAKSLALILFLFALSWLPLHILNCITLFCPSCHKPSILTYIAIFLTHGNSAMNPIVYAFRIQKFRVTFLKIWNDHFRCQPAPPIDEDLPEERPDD
Multi-source literature compilation: pKi on Adenosine receptor A1 (Homo sapiens).
Kindly note that pKi refers to -log10 of the concentration in mol/L and answer with the value alone.

Some entries whose results are on file:
molecule: NC(=O)/N=N/Nc1nc(N)c2ncn([C@@H]3O[C@H](CO)[C@@H](O)[C@H]3O)c2n1
property measured: pKi
result value: 6.85
--
molecule: CCn1cc2c(nc(NC(=O)Cc3cccs3)n3nc(-c4ccco4)nc23)n1
property measured: pKi
result value: 6.83
--
molecule: N#Cc1c(N)nc(SCc2csc(-c3ccc(Cl)cc3)n2)nc1-c1ccccc1
property measured: pKi
result value: 8.05

Exam item: Name the reported pKi value associated with the molecule Nc1nc(-c2ccc(OCCN3CCOCC3)cc2)cn2c(=O)n(-c3ccccc3)nc12
Marked response: 6.44

Exam item: Name the reported pKi value associated with the molecule COCCNc1nc2ccccc2n2nc(-c3ccco3)nc12
Marked response: 6.52

Exam item: Name the reported pKi value associated with the molecule Nc1nc(N2CCC(CNC(=O)CCN3C(=O)c4ccccc4S3(=O)=O)CC2)nc2sc(-c3ccco3)nc12
Marked response: 5.97

Exam item: Name the reported pKi value associated with the molecule O=C(Cc1ccc2ccccc2c1)Nc1nc2nn(CCc3ccccc3)cc2c2nc(-c3ccco3)nn12
Marked response: 7.24

Exam item: Name the reported pKi value associated with the molecule Nc1nc(NC(=O)CCC2CCCC2)nc2c1ncn2[C@@H]1O[C@H](CO)[C@@H](O)[C@H]1O
Marked response: 6.60

Exam item: Name the reported pKi value associated with the molecule CCC(C)Nc1nc2nn(C)cc2c2nc(-c3ccco3)nn12 (racemic)
Marked response: 6.88

Exam item: Name the reported pKi value associated with the molecule N#Cc1c(N)nc(SCCO)c(C#N)c1-c1cccc(F)c1
Marked response: 7.40

Exam item: Name the reported pKi value associated with the molecule Nc1nc(-c2ccc(NC(=O)c3ccc(O)cc3)cc2)cn2c(=O)n(-c3ccccc3)nc12
Marked response: 6.71

###

Multi-source literature compilation: pKi on the protein given by its sequence.
Target sequence: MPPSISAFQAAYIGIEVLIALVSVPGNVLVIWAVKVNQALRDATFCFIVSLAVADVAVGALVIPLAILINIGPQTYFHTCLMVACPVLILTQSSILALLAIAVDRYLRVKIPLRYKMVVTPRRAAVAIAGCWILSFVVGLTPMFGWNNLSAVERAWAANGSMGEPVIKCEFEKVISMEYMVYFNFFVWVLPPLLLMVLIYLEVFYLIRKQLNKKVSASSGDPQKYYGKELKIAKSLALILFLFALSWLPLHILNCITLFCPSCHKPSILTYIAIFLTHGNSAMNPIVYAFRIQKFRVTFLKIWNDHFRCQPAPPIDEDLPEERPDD
pKi: −log10 of the molar value.

Some entries whose results are on file:
compound: CC(C)(C)Cn1cc2c(Cl)nc(N(C(=O)c3ccccc3)C(=O)c3ccccc3)nc2n1
assay system: the protein given by its sequence
result value: < 4.00
--
compound: Cn1ncc2nc(N3CCN(c4ccccc4)CC3)n3nc(-c4ccco4)nc3c21
assay system: the protein given by its sequence
result value: < 6.00

Now examine the next entry.
Exam item: Name the reported pKi value associated with the compound CCC(C)n1cnc2ncnc(N)c21 (stereo not drawn)
Marked response: < 4.00

###

pKi: −log10 of the molar value.
Multi-source literature compilation: pKi on Adenosine receptor A1 (Homo sapiens).

Some entries whose results are on file:
structure string: Cc1ccc2c(O)c(C(=O)NCCC(C)C)cnc2n1
result value: < 5.00

structure string: COc1ccc(-c2cn3c(=O)n(-c4ccccc4)nc3c(N)n2)cc1
result value: < 4.52

Now examine the next entry.
Exam item: Lookup: pKi / Adenosine receptor A1 (Homo sapiens) / CCOC(=O)N1CCN(c2cc(NC3CCCCC3)c3c4c(onc24)-c2ccccc2C3=O)CC1
Marked response: 4.71

###

Protein target, amino acids: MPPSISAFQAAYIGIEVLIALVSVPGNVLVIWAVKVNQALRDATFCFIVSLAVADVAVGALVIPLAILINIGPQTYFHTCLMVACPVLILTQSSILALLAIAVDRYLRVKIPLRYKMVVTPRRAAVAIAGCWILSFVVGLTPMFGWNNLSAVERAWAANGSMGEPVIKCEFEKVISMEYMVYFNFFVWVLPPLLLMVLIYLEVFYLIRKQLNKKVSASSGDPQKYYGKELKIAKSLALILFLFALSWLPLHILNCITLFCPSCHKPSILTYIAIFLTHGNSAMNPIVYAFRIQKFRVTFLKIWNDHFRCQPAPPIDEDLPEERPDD
Multi-source literature compilation: log10 Ki on the protein given by its sequence.
Heads up, the numbers here are log10 of Ki in µM units.

structure string: CCCn1c(=O)c2nc(-c3cnn(Cc4cc(-c5cccc(Cl)c5)on4)c3)[nH]c2n(CCC)c1=O
result value: 0.66
//
structure string: CCOC(=O)c1c(NC(=O)c2sc(Nc3ccccc3)nc2-c2ccc(C)cc2)sc2c1CCCC2
result value: 0.89
//
structure string: CNc1nc(-c2cn(Cc3cccc(Cl)c3)nn2)nc2c1ncn2[C@@H]1O[C@H](CO)[C@@H](O)[C@H]1O
result value: -0.02
//
structure string: CCNc1nc(-c2cccs2)c2sccc2n1
result value: -0.09

Exam item: Name the reported log10 Ki value associated with the compound CCCn1cnc2c(N)ncnc21
Marked response: 0.97

Exam item: Name the reported log10 Ki value associated with the compound CCN1CCN(CC(=O)Nc2cc(-n3nc(C)cc3C)nc(-c3ccc(C)o3)n2)CC1
Marked response: 0.27

Exam item: Name the reported log10 Ki value associated with the compound Nc1nc(-c2ccco2)c2cnn(Cc3cccc(OCCCCCCC(=O)NO)n3)c2n1
Marked response: -0.19

###

Sequence of the target: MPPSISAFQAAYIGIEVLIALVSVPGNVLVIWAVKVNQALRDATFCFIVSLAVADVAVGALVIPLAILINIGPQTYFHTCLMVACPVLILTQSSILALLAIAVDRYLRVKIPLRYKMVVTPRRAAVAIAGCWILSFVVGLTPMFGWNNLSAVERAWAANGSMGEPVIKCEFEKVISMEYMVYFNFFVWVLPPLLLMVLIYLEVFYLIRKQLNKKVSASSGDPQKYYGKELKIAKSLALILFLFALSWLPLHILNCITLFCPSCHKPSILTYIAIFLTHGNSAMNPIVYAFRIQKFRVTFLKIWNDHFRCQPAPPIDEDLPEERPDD
Multi-source literature compilation: Ki on the protein given by its sequence.
Label Fulfilled when Ki is strictly below 300 nM; otherwise label Not fulfilled.

Exam item: Please indicate whether the reported Ki of CN(C)c1nc(-c2nccs2)c2sccc2n1 is strictly below 300 nM.
Marked response: Not fulfilled

Exam item: Please indicate whether the reported Ki of C=CCN1C(=O)N2CC(C)N=C2c2[nH]c(-c3cc(C)n(C)n3)nc21 (racemic) is strictly below 300 nM.
Marked response: Not fulfilled

Exam item: Please indicate whether the reported Ki of CNc1nc(C#N)nc2c1ncn2[C@@H]1O[C@H](CO)[C@@H](O)[C@H]1O is strictly below 300 nM.
Marked response: Fulfilled

Exam item: Please indicate whether the reported Ki of Nc1nc(-c2ccccc2)cn2c(=O)n(-c3ccc([N+](=O)[O-])cc3)nc12 is strictly below 300 nM.
Marked response: Fulfilled

Exam item: Please indicate whether the reported Ki of Cc1ccc(-c2nc(-c3ccccc3)c3[nH]cnc3n2)cc1 is strictly below 300 nM.
Marked response: Fulfilled

Exam item: Please indicate whether the reported Ki of Cn1cc2c(nc(NC(=O)Cc3ccc(F)cc3)n3nc(-c4ccco4)nc23)n1 is strictly below 300 nM.
Marked response: Not fulfilled

Exam item: Please indicate whether the reported Ki of CCCn1c(=O)c2nc([C@]34CC[C@](C(=O)NCCC(=O)OC)(CC3)CC4)[nH]c2n(CCC)c1=O is strictly below 300 nM.
Marked response: Fulfilled

Exam item: Please indicate whether the reported Ki of COC[C@H]1CCCN1c1cc(NC(C)=O)nc(-c2cccs2)n1 is strictly below 300 nM.
Marked response: Fulfilled

Exam item: Please indicate whether the reported Ki of CCOC(=O)Nc1cc(-c2cncc(OC)c2)nc(-n2nc(C)cc2C)n1 is strictly below 300 nM.
Marked response: Not fulfilled

Exam item: Please indicate whether the reported Ki of CCOc1cc2occ(-c3nc(C)cs3)c(=O)c2cc1CC is strictly below 300 nM.
Marked response: Not fulfilled
